Target: Torsin-1A-interacting protein 2 (Homo sapiens)
Test: LULL1 binders on small-molecule microarray, primary screen, cell lysate, human LULL1 lysate, 635/667 nm fluorescence (AID 1092);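 also: probe is lysate of COS7 cells overexpressing human LULL1; score merges per-feature 667 nm fluorescence with signal-to-noise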
Details: hLULL1 lysate binding, 635 nm fluorescence, higher = more signal
attribute_measured: composite z-score

# molecule, tgt, attribute_measured, reported
data = [
    ("C=C(COC)C(=O)CC[C@@H](OC(=O)c1cccnc1)c1ccccc1OCCO", "Torsin-1A-interacting protein 2 (Homo sapiens)", "composite z-score", -0.135),
    ("CC1(C)C(=O)C(c2ccccc2)=C2CN3C(=O)N(CCc4ccccc4)C(=O)C3(Cc3ccc(C(F)(F)F)cc3)C=C21 (stereo not given)", "Torsin-1A-interacting protein 2 (Homo sapiens)", "composite z-score", 2.65),
    ("C=C(COC)C(=O)CC[C@H](OC(C)=O)c1ccc(OCCO)cc1", "Torsin-1A-interacting protein 2 (Homo sapiens)", "composite z-score", -0.451),
    ("CC1CC/C=C\\[C@H]2OC34C=CCN(C(C)(C)C)C(=O)[C@H]3N(C(CO)C(C)C)C(=O)[C@@H]4C2C(=O)O1 (stereo not given in full)", "Torsin-1A-interacting protein 2 (Homo sapiens)", "composite z-score", 2.5),
    ("Cc1ccccc1C(O)C1C=CC2C(=O)NC(=O)C2N1Nc1ccc(Cl)cc1Cl (stereo not given)", "Torsin-1A-interacting protein 2 (Homo sapiens)", "composite z-score", 2.27),
]
